Taken from patent US20250051449A1.

Target: T1, human CD112R expressed on Jurkat cells (human, UniProt Q6DKI7 1-326)
T1 construct: whole, on cells; Used for both Jurkat-CD112R OE cells and wild type Jurkat cells; which cells is said under assay; also called PVRIG; Jurkat-CD112R OE
T1 sequence (looked up): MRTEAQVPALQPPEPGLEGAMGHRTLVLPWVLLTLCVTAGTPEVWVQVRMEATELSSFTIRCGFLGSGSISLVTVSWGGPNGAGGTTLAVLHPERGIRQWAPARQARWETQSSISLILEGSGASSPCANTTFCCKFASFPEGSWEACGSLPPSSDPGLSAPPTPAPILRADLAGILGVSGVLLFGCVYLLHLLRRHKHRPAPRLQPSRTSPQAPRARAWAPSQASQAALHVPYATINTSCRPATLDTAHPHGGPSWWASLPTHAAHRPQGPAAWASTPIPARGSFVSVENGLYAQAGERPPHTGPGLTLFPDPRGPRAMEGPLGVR
Experiment: flow cytometry competition on Jurkat-CD112R OE cells; competitor biotinylated his-tagged human CD112
# CD112 blocking max inhibition (%) per entry
Readout Type: CD112 blocking max inhibition (%)

1) Antibody 10 (antibody, V domains shown, Purified as IgG; compared with an IgG1 isotype control and detected with anti-human IgG Fc; also called antibody clone number 10; clone 10) VH: EVQLVESGGGLVQPGRSLRLSCAASGFTFDDYAVHWVRQAPGKGLEWVSGISWSSGLIGYADSVKGRFTISRDNAKNSLYLQMNSLRAEDTAVYYCAKGPPTYQDYFDLWGRGTLVTVSS VL: EIVLTQSPATLSLSPGERATLSCRASQSVSRYLAWYQQKPGQAPRLLIYDASNRATGIPARFSGSGSGTDFTLTISSLEPEDFAVYYCQQVSFFPPITFGGGTKVEIK	96.8
2) Antibody 36 (antibody, V domains shown, Purified as IgG; compared with an IgG1 isotype control and detected with anti-human IgG Fc; also called antibody clone number 36; clone 36) VH: QVQLVQSGAEVKKPGSSVKVSCKASGGTFATYAISWVRQAPGQGLEWMGGIFPLSGTANYAQKFQGRVTITADESTSTAYMELSSLRSEDTAVYYCARDTGRGYTRHFWFDPWGQGTLVTVSS VL: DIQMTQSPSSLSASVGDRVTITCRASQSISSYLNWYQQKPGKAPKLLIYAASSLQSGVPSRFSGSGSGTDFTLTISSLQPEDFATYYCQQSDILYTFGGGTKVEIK	97.5
3) Antibody 32 (antibody, V domains shown, Purified as IgG; compared with an IgG1 isotype control and detected with anti-human IgG Fc; also called antibody clone number 32; parent clone 32) VH: QVQLVQSGAEVKKPGSSVKVSCKASGGTFSSYAISWVRQAPGQGLEWMGGIIPISGTANYAQKFQGRVTITADESTSTAYMELSSLRSEDTAVYYCARDTGRGYTRHFWFDPWGQGTLVTVSS VL: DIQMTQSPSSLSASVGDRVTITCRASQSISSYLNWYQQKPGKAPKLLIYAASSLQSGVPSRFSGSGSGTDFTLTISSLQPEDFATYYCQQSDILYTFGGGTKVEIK	96
